- PROCEDURE SUMMARY: Metabolic stability in human liver microsomes assessed as intrinsic clearance
- Format: ADME, Microsome
- MEASUREMENT PARAMETERS: read-out: CLH
Could you label it yes (1) if measured CLint scaled is 300 mL/min/kg or higher, and no (0) otherwise?

QUERY: Textbook exercise: given the entry C=CC(=O)N(C)CCOc1cncnc1-c1ccc(CN2CCN(CC(C)(C)C)CC2=O)c(F)c1 , state whether its CLint scaled is greater than or equal to 300 mL/min/kg.
RESULT: yes (1)

QUERY: Does the compound C=CC(=O)N(C)CCOc1cncnc1-c1ccc(CN2CCN(CC3(C)CC3)CC2=O)c(C)c1 have recorded CLint scaled that is 300 mL/min/kg or more?
RESULT: yes (1)

QUERY: API: above_or_equal(metric=CLint scaled, cutoff=300 mL/min/kg) for item C=CC(=O)N(C)CCOc1cncnc1-c1ccc(CN2CCN(CC(F)(F)F)CC2=O)c(C)c1
RESULT: yes (1)

QUERY: Hello, I need to know if C=CC(=O)N(C)CCOc1cnccc1-c1ccc(CN2CCN(C)CC2=O)c(C)c1 has measured CLint scaled not below 300 mL/min/kg. Thanks!
RESULT: no (0)

QUERY: Does the reported CLint scaled for C=CC(=O)N(C)CCOc1cnccc1-c1ccc(CN2CCN(CCC)CC2=O)c(C)c1 fall at or above the 300 mL/min/kg mark?
RESULT: no (0)

The origin of these recorded values is ChEMBL document CHEMBL5131445.
